System: PC-3 prostate
Assay: NCI tumour cell line growth inhibition, 48 h
Assign TGI to each entry below.
Entry rule: numbers only, all in µM.

The compound identified as `O=C1NC(=C(Cl)Cl)/C(=N/S(=O)(=O)N2CCCCC2)N1` registered its TGI at 10.5

The compound `COc1cc(/C=C/c2cc(/C=C/c3ccc(O)c(OC)c3)n(C(=O)c3ccc(Cl)cc3)n2)ccc1O` showed TGI equal to 15.5

TGI reading for `COc1ccccc1Nc1cc(O)c2c(=O)cc(-c3ccccc3)oc2c1` : 41.6

Entry CCCCN1C(=O)C2Cc3c([nH]c4ccccc34)C(c3cccc(O)c3)N2C1=O (centres undefined) — recorded TGI = 32.8

// sample `O=C1N[C@@H]2[C@@H](O)[C@@H](O)[C@H](O)C[C@H]2c2cc3c(c(O)c21)OCCO3` , its TGI was 2.54

# compound CC(/C=C/C(=O)NO)=C\C(C)C(=O)c1ccc(N(C)C)cc1 (centres undefined) ; its TGI = 10.7

CC1=C(C(=O)OC2CC3CCC2(C)C3(C)C)C2Nc3ccccc3N(C)C2O1 (centres undefined) yielded TGI of 12.3

Given item C=C(Cl)C(Cl)(CBr)CCC(Br)C(C)(C)Br (centres undefined) , the value recorded as its TGI is 5.68

Record O=C1NC2c3c(I)sc(I)c3C(=O)C2O1 (centres undefined) . Reported TGI: 19

The compound listed as CC(=O)O[C@@H]1C2CCC3C(CC[C@@]4(C)C3CC[C@@H]4C(C)N(C)C)[C@@]2(C)CC[C@@H]1NC(=O)C=C(C)C (some centres undefined) shows TGI equal to 13.9

Noted for COc1ccc(C(CC2(c3ccc(OC)cc3)SCCCS2)NC(C)=O)cc1 (centres undefined) : its TGI reads 69

Looking up `Clc1c(Cl)[n+](Cc2ccc3ccccc3c2)cn1Cc1ccc2ccccc2c1` , I see its TGI listed as 2.87

Measured TGI of `COc1ccc2c(c1)C(=O)c1c-2n(CCCN(C)C)c(=O)c2ccccc12` : 8.07

TGI for `CCOC(=O)Cc1c(C)c2cc(C(=O)c3ccccc3)c(O)cc2oc1=O` is 81.2

Reported TGI of `Oc1c(Br)cc(/C=C/c2ccnc(/C=C/c3cc(Br)c(O)c(Br)c3)c2)cc1Br` : 39
